# System: Pseudaletia separata
# ASSAY_DETAILS: Efficacy test against Pseudaletia separata (artificial diet)
# Type: in vivo
# TEST_CONDITIONS: in vivo
Task for the reader: assign each of the following compounds its reported insect mortality rate.
Numbers only, in %.

Please give insect mortality rate, item by item, for the list that follows.
1. CCS(=O)(=O)c1cc(C(F)(F)F)ccc1-n1cc(-c2ccc(C(F)(F)F)cc2F)cn1
2. CCSc1cc(C(F)(F)F)ccc1-n1ncc(-c2ccc(C(F)(F)F)cc2)c1N
3. CCS(=O)(=O)c1cc(C(F)(F)F)ccc1-n1ncc(-c2ccc(OC(F)(F)F)c(Cl)c2)c1N
4. CCS(=O)(=O)c1cc(C(F)(F)F)cnc1-n1ncc(-c2ccc(OC(F)(F)F)cc2)c1N
5. CCS(=O)(=O)c1cccnc1-n1ncc(-c2ccc(C(F)(F)C(F)(F)F)nc2)c1C

Ans:
1. 100
2. 100
3. 100
4. 100
5. 100

* * *

Answer each item with its documented melting point.

Look over these answered cases.
MOLECULE: CCS(=O)(=O)c1cc(C(F)(F)F)ccc1-n1cc(-c2ccc(OC(F)(F)F)cc2)nn1 [Compound 4-8]
melting point: 178 to 179 °C
--
MOLECULE: CCSc1cc(C(F)(F)F)ccc1-n1cc(-c2ccc(OC(F)(F)F)cc2)nn1 [Compound 4-7]
melting point: 110 to 111 °C

I would be grateful if you could provide melting point for each of the following entries.
1. CCSc1cc(C(F)(F)F)ccc1-n1nnc(-c2ccc(C(F)(F)F)cc2)c1C [Compound 4-5]
2. CCS(=O)(=O)c1cc(C(F)(F)F)ccc1-n1nnc(-c2ccc(C(F)(F)F)cc2)c1C [Compound 4-6]

Ans:
["79 to 80 °C", "154 to 156 °C"]
